The origin of these recorded values is ChEMBL document CHEMBL1134145.

experiment: Dissociation constant of compound with Fructose was determined; type: physicochemical
measurementLabel: pKd
Scale for pKd: -log10 of concentration given in mol/L; no unit attached.

Exam item: Give the measured pKd of NCCC[C@@H]1NC(=O)[C@H](CC(=O)O)NC(=O)[C@@H]2CCCN2C(=O)[C@@H](Cc2ccccc2)NC(=O)[C@H](Cc2c[nH]c3ccccc23)NC(=O)[C@H](CCCN)NC(=O)[C@H](CC(N)=O)NC(=O)[C@@H]2CCCN2C(=O)[C@@H](Cc2ccccc2)NC(=O)[C@H](Cc2c[nH]c3ccccc23)NC1=O .
Marked response: 2.33

Exam item: Give the measured pKd of NCCC[C@@H]1NC(=O)[C@H](CC(=O)O)NC(=O)[C@@H]2CCCN2C(=O)[C@@H](Cc2ccccc2)NC(=O)[C@H](Cc2c[nH]c3ccccc23)NC(=O)[C@H](CCCN)NC(=O)[C@H](CC(=O)O)NC(=O)[C@@H]2CCCN2C(=O)[C@@H](Cc2ccccc2)NC(=O)[C@H](Cc2c[nH]c3ccccc23)NC1=O .
Marked response: 2.82

Exam item: Give the measured pKd of NCCC[C@@H]1NC(=O)[C@H](CC(N)=O)NC(=O)[C@@H]2CCCN2C(=O)[C@@H](Cc2ccccc2)NC(=O)[C@H](Cc2c[nH]c3ccccc23)NC(=O)[C@H](CCCN)NC(=O)[C@H](CC(N)=O)NC(=O)[C@@H]2CCCN2C(=O)[C@@H](Cc2ccccc2)NC(=O)[C@H](Cc2c[nH]c3ccccc23)NC1=O .
Marked response: 2.82
